- system: PARP1 (Homo sapiens)
- Sequence (P09874 whole entry): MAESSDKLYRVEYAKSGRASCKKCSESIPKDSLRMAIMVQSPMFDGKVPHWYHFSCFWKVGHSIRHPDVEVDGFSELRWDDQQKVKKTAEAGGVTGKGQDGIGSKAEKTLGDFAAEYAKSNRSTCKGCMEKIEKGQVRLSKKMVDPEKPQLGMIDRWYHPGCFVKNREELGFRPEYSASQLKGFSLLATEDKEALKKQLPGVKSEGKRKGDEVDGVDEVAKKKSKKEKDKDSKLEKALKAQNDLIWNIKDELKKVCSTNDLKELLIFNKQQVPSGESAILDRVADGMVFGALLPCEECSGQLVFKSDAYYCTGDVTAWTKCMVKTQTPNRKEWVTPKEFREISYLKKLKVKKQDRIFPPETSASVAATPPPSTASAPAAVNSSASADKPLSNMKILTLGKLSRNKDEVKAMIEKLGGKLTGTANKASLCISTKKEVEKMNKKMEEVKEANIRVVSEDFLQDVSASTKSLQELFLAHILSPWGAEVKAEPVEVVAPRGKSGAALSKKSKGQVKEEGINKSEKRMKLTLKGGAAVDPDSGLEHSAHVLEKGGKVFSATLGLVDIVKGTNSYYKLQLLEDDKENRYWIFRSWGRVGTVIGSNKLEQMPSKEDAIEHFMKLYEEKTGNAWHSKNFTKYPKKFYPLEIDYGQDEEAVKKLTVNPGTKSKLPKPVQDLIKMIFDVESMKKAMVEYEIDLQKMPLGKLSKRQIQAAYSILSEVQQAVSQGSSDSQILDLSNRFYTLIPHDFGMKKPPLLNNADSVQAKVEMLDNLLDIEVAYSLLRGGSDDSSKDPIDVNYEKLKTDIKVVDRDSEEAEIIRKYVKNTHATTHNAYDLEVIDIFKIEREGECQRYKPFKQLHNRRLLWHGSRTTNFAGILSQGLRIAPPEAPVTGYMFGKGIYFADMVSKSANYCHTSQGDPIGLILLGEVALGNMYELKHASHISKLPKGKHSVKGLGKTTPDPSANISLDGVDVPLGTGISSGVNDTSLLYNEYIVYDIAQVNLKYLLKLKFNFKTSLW
- assay_info: Inhibition of PARP1 enzyme activity (ELISA, chemiluminescence)
- Type: biochemical
- measurement_conditions: ELISA, histone-coated plate, NAD+, 60 min at 25 °C
Could you mark each record rule met if its IC50 falls strictly under 3 nM, and rule not met if it equals or exceeds it?

Here are 3 compounds together with their reported answers.
# molecular_string, system, class_assignment
measured = [
    ("CNC(=O)c1ccc(N2CCN(Cc3cc(OC(F)F)c4nc(C)c(=O)[nH]c4c3F)CC2)c(C)n1", "PARP1 (Homo sapiens)", "rule met"),
    ("CNC(=O)c1ccc(N2CCN(Cc3cc(OC(F)F)c4nc(C)c(=O)[nH]c4c3)CC2)cn1", "PARP1 (Homo sapiens)", "rule not met"),
    ("CC#Cc1cc(CN2CC=C(c3ccc(C(=O)NC)nc3)CC2)cc2[nH]c(=O)c(C)nc12", "PARP1 (Homo sapiens)", "rule not met"),
]

Field: below-cutoff. Rule: recorded IC50 strictly less than 3 nM. Subject: CC#Cc1cc(CN2CCN(c3ccc(C(=O)NC)nc3F)CC2)c(F)c2[nH]c(=O)c(C)nc12
rule not met

Threshold test, IC50 < 3 nM: CNC(=O)c1ccc(C2=CCN(Cc3cc(OC(F)F)c4nc(C)c(=O)[nH]c4c3)CC2)c(F)n1
rule met

Please determine if CNC(=O)c1ccc(N2CCN(Cc3cc(C4CCCC4)c4nc(C)c(=O)[nH]c4c3)CC2)c(F)n1 is below 3 nM in terms of IC50.
rule met

###

- system: PARP1 (Homo sapiens)
- assay_info: Inhibition of PARP1 enzyme activity (ELISA, chemiluminescence)
- Assay type: biochemical
- measurement_conditions: ELISA, histone-coated plate, NAD+, 60 min at 25 °C
assay_endpoint: IC50 (nM)
State just the number; it will be interpreted in nM.

Worked examples follow.
# molecular_string, unit_annotation, IC50
rows = [
    ("CNC(=O)c1ccc(C2=CCN(Cc3cc(C#CC4CC4)c4nc(C)c(=O)[nH]c4c3F)CC2)c(F)n1", "nM", 10),
    ("CNC(=O)c1ccc(N2CCN(Cc3cc(-c4ccccc4)c4nc(C)c(=O)[nH]c4c3)CC2)c(F)n1", "nM", 1.5),
    ("CNC(=O)c1ccc(C2=CCN(Cc3cc(OC(F)F)c4nc(C)c(=O)[nH]c4c3F)CC2)c(C)n1", "nM", 6.4),
]

Turning now to a further record.
State IC50 on PARP1 (Homo sapiens). Entry: Cc1nc2c(OC(F)F)cc(CN3CC=C(c4ccc(C(=O)NC5CC5)nc4F)CC3)cc2[nH]c1=O
0.9

###

- assay_info: Pharmacokinetics in mice after intravenous injection or gavage
- measurement_conditions: BALB/c, mouse, plasma, iv, 2 mg/kg
Recorded measurements of half-life, one per entry
The reply should contain only the number, in h.

# molecular_string, unit_annotation, half-life
measured = [
    ("CC#Cc1cc(CN2CC=C(c3ccc(C(=O)NC4CC4)nc3F)CC2)c(F)c2[nH]c(=O)c(C)nc12", "h", 1.3),
    ("CNC(=O)c1ccc(N2CCN(Cc3cc(OC(F)F)c4nc(C)c(=O)[nH]c4c3F)CC2)c(F)n1", "h", 3.3),
    ("CNC(=O)c1ccc(N2CCN(Cc3cc(-c4ccccc4)c4nc(C)c(=O)[nH]c4c3)CC2)c(F)n1", "h", 3.1),
    ("CC#Cc1cc(CN2CCN(c3ccc(C(=O)NC4CC4)nc3F)CC2)cc2[nH]c(=O)c(C)nc12", "h", 1.2),
    ("CNC(=O)c1ccc(N2CCN(Cc3cc(OC(F)F)c4nc(C)c(=O)[nH]c4c3)CC2)c(C)n1", "h", 2.5),
]

Given CC#Cc1cc(CN2CCN(c3ccc(C(=O)NC)nc3F)CC2)cc2[nH]c(=O)c(C)nc12 , respond with its half-life.
1.6
